Below, each entry is listed with its recorded absolute recovery.
assay: absolute recovery over mixed-bed multilayer solid-phase extraction; higher = better recovery; conditions: wastewater effluent; enrichment method: SPE
Report only the number, with the unit % understood.

- COMPOUND: "CCNc1nc(O)nc(NC(C)C)n1 [Atrazin-2-Hydroxy]"
  UNIT_ANNOTATION: "%"
  MEASUREMENT: 94.5

Which absolute recovery reading was recorded for the compound COC(=O)c1ccc(C(F)(F)F)nc1S(=O)(=O)[N-]C(=O)Nc1nc(OC)cc(OC)n1 ? 93.6

What does the data say about its absolute recovery? Entry: N#Cc1c(Cl)c(Cl)c([O-])c(C(=[NH2+])[O-])c1Cl 94.8

Could you share which absolute recovery value was measured for O=C([O-])COCC[NH+]1CCN(C(c2ccccc2)c2ccc(Cl)cc2)CC1 (stereo not given) ? 95.8

What value of absolute recovery has been reported for the following compound? O=S(=O)([O-])c1ccc2ccccc2c1 92.6

What does the data say about its absolute recovery? Entry: N#CCNC(=O)c1cnccc1C(F)(F)F 99.5

State the recorded absolute recovery for this entry: CN1COCN(Cc2cnc(Cl)s2)C1=N[N+](=O)[O-] 96.3

Give its absolute recovery value. Item: Cc1cc(Cl)ccc1OC(C)C(=O)[O-] (stereo not given) 94.9

Which absolute recovery is reported for this compound? O=P1(NCCCl)OCCCN1CCCl (stereo not given) 92.9

Param item = O=C([O-])c1cc(Oc2ccc(Cl)cc2Cl)ccc1[N+](=O)[O-] ; retrieve measured absolute recovery. 77

---

Consider the following compounds and their measured absolute recovery readings.
assay: absolute recovery over vacuum-assisted evaporative concentration; higher = better recovery; conditions: wastewater effluent; enrichment method: VEC
The reply should be a number in %, with the unit left off.

- COMPOUND: "O=C1Nc2ccc(Cl)cc2C(c2ccccc2Cl)=NC1O (stereo not drawn)"
  MEASUREMENT: 108

Please look up its absolute recovery: CCC1OC(=O)CC(O)C(C)C(OC2OC(C)C(OC3CC(C)(O)C(O)C(C)O3)C([NH+](C)C)C2O)C(CC=O)CC(C)C(=O)C=CC(C)=CC1COC1OC(C)C(O)C(OC)C1OC (stereo not drawn) 66.4

Entry CCC1OC(=O)C(C)C(OC2CC(C)(OC)C(O)C(C)O2)C(C)C(OC2OC(C)CC([NH+](C)C)C2O)C(C)(O)CC(C)C[NH+](C)C(C)C(O)C1(C)O (stereo not drawn) has what absolute recovery? 97.9

---

assay: absolute recovery over mixed-bed multilayer solid-phase extraction; higher = better recovery; conditions: wastewater effluent; enrichment method: SPE
ASSAY_ENDPOINT: absolute recovery (%)
// note: answer is a bare numeric in %

- COMPOUND: "O=C1[N-]S(=O)(=O)c2ccccc21"
  absolute recovery, %: 95.6

Name the recorded absolute recovery for CC12CCC(=O)C=C1CCC1C2C(O)CC2(C)C(C(=O)CO)CCC12 (centres undefined) . 71.8

I would be grateful if you could share the reported absolute recovery for O=C(Nc1ccccc1-c1ccc(Cl)cc1)c1cccnc1Cl . 95.2

Can you look up the measured absolute recovery of CSc1nc(NC(C)C)nc(NC(C)C)n1 for me? 92.4

---

# absolute recovery listing for each entry below
experiment: absolute recovery over vacuum-assisted evaporative concentration; higher = better recovery; conditions: wastewater effluent; enrichment method: VEC
Answer with a number only, understood to be in %.

Sample records with absolute recovery:
- MOLECULE: "O=C1Nc2ccc(Cl)cc2C(C#CC2CC2)(C(F)(F)F)O1 (centres undefined)"
  UNIT_ANNOTATION: "%"
  absolute recovery: 105
- MOLECULE: "Cc1cc(O)nc(C(C)C)n1"
  UNIT_ANNOTATION: "%"
  absolute recovery: 108
- MOLECULE: "CCOC(=O)C1(c2ccccc2)CCC=CC1[NH+](C)C (centres undefined)"
  UNIT_ANNOTATION: "%"
  absolute recovery: 70
- MOLECULE: "CCC1OC(=O)C(C)C(OC2CC(C)(OC)C(O)C(C)O2)C(C)C(OC2OC(C)CC([N+](C)(C)[O-])C2O)C(C)(OC)CC(C)C(=O)C(C)C(O)C1(C)O (centres undefined) [Clarithromycin-N-Oxide]"
  UNIT_ANNOTATION: "%"
  absolute recovery: 103
- MOLECULE: "CC([NH3+])Cc1ccccc1 (centres undefined)"
  UNIT_ANNOTATION: "%"
  absolute recovery: 97.8
- MOLECULE: "CCCCCCCCCC[N+](C)(C)[O-]"
  UNIT_ANNOTATION: "%"
  absolute recovery: 103

Recorded absolute recovery of C[NH2+]C1(c2ccccc2Cl)CCCCC1=O (centres undefined) , please. 101

Requested read-out: absolute recovery. Entry: CSc1nc2cc(Oc3cccc(Cl)c3Cl)c(Cl)cc2[nH]1 86.4

Consider the molecule shown here: CCC(CO)NCC[NH2+]C(CC)CO (centres undefined) What is its recorded absolute recovery? 102

---

test: absolute recovery over vacuum-assisted evaporative concentration; higher = better recovery; conditions: wastewater influent; enrichment method: VEC
Recorded absolute recovery, one value per entry.
State the value with its unit after it.

State the recorded absolute recovery for this entry: Clc1ccccc1C[NH+]1CCc2sccc2C1 45.4%

Item COC(=O)c1ccc(C(F)(F)F)nc1S(=O)(=O)[N-]C(=O)Nc1nc(OC)cc(OC)n1 has what recorded absolute recovery? 59.1%

For the compound CCc1cc(C)cc(CC)c1-c1c(OC(=O)C(C)(C)C)n2n(c1=O)CCOCC2 , what absolute recovery is on record? 10.7%

Can you look up the measured absolute recovery of CC(C)(Oc1ccc(CCNC(=O)c2ccc(Cl)cc2)cc1)C(=O)[O-] for me? 103%

Look up absolute recovery for this compound: CN1CC[NH+]=C(c2ccccc2)c2cc(Cl)ccc21 109%

---

experiment: LC retention time (Atlantis T3, 5-95% MeOH gradient, 0.1% formic acid); higher = more retained / less polar
ASSAY_ENDPOINT: LC retention time

Examples with answers:
- COMPOUND: "CC(Oc1ccc(Cl)cc1Cl)C(=O)[O-] (centres undefined) [Dichlorprop]"
  MEASUREMENT: "20.1 min"
- COMPOUND: "COc1ccc2c(c1)c(CC(=O)OCC(=O)[O-])c(C)n2C(=O)c1ccc(Cl)cc1 [Acemetacin]"
  MEASUREMENT: "21.4 min"
- COMPOUND: "CN(CC(=O)[O-])S(=O)(=O)C(F)(F)C(F)(F)C(F)(F)C(F)(F)C(F)(F)C(F)(F)C(F)(F)C(F)(F)F [N-MeFOSAA]"
  MEASUREMENT: "23.3 min"

Consider the record given below.
Name the recorded LC retention time for CC(C)n1c(C=CC(O)CC(O)CC(=O)[O-])c(-c2ccc(F)cc2)c2ccccc21 (centres undefined) [Fluvastatin] . 20.8 min

---

assay: LC retention time (Atlantis T3, 5-95% MeOH gradient, 0.1% formic acid); higher = more retained / less polar
ASSAY_ENDPOINT: LC retention time (min)
Number in min, nothing else.

Consider the following illustrative entries.
- COMPOUND: "CCOc1cc(Oc2ccc(C(F)(F)F)cc2Cl)ccc1[N+](=O)[O-] [Oxyfluorfen]"
  ASSAY_ENDPOINT: "LC retention time"
  UNIT_ANNOTATION: "min"
  MEASUREMENT: 21
- COMPOUND: "COc1cc2[nH+]c(N3CCN(C(=O)C4COc5ccccc5O4)CC3)nc(N)c2cc1OC (centres undefined) [Doxazosin]"
  ASSAY_ENDPOINT: "LC retention time"
  UNIT_ANNOTATION: "min"
  MEASUREMENT: 15.3
- COMPOUND: "C[NH2+]CCC(Oc1ccc(C(F)(F)F)cc1)c1ccccc1 (centres undefined) [Fluoxetin]"
  ASSAY_ENDPOINT: "LC retention time"
  UNIT_ANNOTATION: "min"
  MEASUREMENT: 16.2
- COMPOUND: "C#CC[NH2+]C(C)Cc1ccccc1 (centres undefined) [Nordeprenyl]"
  ASSAY_ENDPOINT: "LC retention time"
  UNIT_ANNOTATION: "min"
  MEASUREMENT: 11.5
- COMPOUND: "CSc1nc2cc(Oc3cccc(Cl)c3Cl)c(Cl)cc2[nH]1 [Triclabendazol]"
  ASSAY_ENDPOINT: "LC retention time"
  UNIT_ANNOTATION: "min"
  MEASUREMENT: 21.8
- COMPOUND: "CCOP(=O)(OCC)OC(=CCl)c1ccc(Cl)cc1Cl [Chlorfenvinphos]"
  ASSAY_ENDPOINT: "LC retention time"
  UNIT_ANNOTATION: "min"
  MEASUREMENT: 20.9

Please give the measured LC retention time for this compound: CCOC(=O)C1=NN(c2ccc(Cl)cc2Cl)C(C)(C(=O)OCC)C1 (centres undefined) [Mefenpyr-diethyl] 21.1

May I ask what LC retention time has been recorded for CC(COc1ccccc1Cc1ccccc1)[NH+]1CCCCC1 (centres undefined) [Benproperine] ? 16.2

Request the reported LC retention time associated with COC=C(C(=O)[O-])c1ccccc1Oc1cc(Oc2ccccc2C#N)ncn1 [Azoxystrobin-acid] 18

For the compound shown here, CC1CC2C3CCC4=CC(=O)C=CC4(C)C3(F)C(O)CC2(C)C1(O)C(=O)CO (centres undefined) [Dexamethason] , give the reported LC retention time. 18.7
